Where do the numbers come from? From the Human Domainome abundance scans (Beltran et al. 2025).

B1: POU domain, class 2, transcription factor 3, residues 186 to 260; numbered along this chain, Q9UKI9 (parent)
chain: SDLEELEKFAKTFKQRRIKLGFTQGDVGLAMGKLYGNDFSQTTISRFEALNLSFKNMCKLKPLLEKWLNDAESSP

- Variants of: B1
- assay_protocol: abundance fitness (aPCA) (normalised: wild type 0, dead -1); higher = more abundant; growth selection in yeast, the domain comes from the species named
- condition_info: Homo sapiens
reported_endpoint: abundance fitness
Would you mind answering with just the numeric figure?

Please report the recorded abundance fitness for SDLEELEKFAKTFKQRRIKLGFTQGDVGLAMGKLYGNDFSQTTISRFDALNLSFKNMCKLKPLLEKWLNDAESSP [E48D] . -1.11

Now consider SDLEELEKFAKTFKQRRIKLGFTQGDVGLAMGKLYGNDFSQTTISRFEALNLSFKNMCALKPLLEKWLNDAESSP [K59A] and answer again. -0.013

Now consider SDLEELEKFAKTFKQRRIKLGFTQGDVGLAMGKLYGNDFSQTTISRFEALNLSFKDMCKLKPLLEKWLNDAESSP [N56D] and answer again. 0.008

Now consider SDLEELEKFAKTFKQRRIKLGFTQGDVGLAMGKLYGNDFSQTTINRFEALNLSFKNMCKLKPLLEKWLNDAESSP [S45N] and answer again. 0.004

Now consider SDLEELEKFAKTFKQRRIKLGFTQGDVGLAMGKLYGNDFSQTTISRFEALNLSFKNMCKLKPLLEKWHNDAESSP [L68H] and answer again. -0.358

Now consider SDLEELEKFAKTFKQRRIKLGFTWGDVGLAMGKLYGNDFSQTTISRFEALNLSFKNMCKLKPLLEKWLNDAESSP [Q24W] and answer again. -0.591

Now consider SDLEELEKFAKTFKQRRIKLGFTQGDVGLAMGKLYGNDFSQTTISRFEALNLSFHNMCKLKPLLEKWLNDAESSP [K55H] and answer again. -0.132

Now consider SDLEELEKFAKTFKQRRIKLGFTQGDVGLAMGKLYGNDFSQTTISRFEALVLSFKNMCKLKPLLEKWLNDAESSP [N51V] and answer again. -0.1

Now consider SDLEELEKFAKTFKQRRIKLGFTQGDVGLAMGKLYGNDFSQTTISRFEALNLSFDNMCKLKPLLEKWLNDAESSP [K55D] and answer again. 0.037

Now consider SDLEELEKFAKTFKQRRIKLGFTQGDVGLAMGKLYGNDFSQTTISRFEALNLSFKNMCKLKPLLEKWLNHAESSP [D70H] and answer again. -0.131

Now consider SDLEELEKFAKTFKQRRIKLGFTQGDVGLAMGKLYGADFSQTTISRFEALNLSFKNMCKLKPLLEKWLNDAESSP [N37A] and answer again. 0.02

Now consider SDLEELEKFAKTFKQRRIKLGFTQGDVGLAMGKLYGNDFSQTTISRFEHLNLSFKNMCKLKPLLEKWLNDAESSP [A49H] and answer again. 0.014

Now consider SDLEELEKFAKTFKQRRIKLGFSQGDVGLAMGKLYGNDFSQTTISRFEALNLSFKNMCKLKPLLEKWLNDAESSP [T23S] and answer again. 0.026

Now consider SDLEELEKFAKTFKQRRIKLGFTQGDVGLAMGKLYGNDFSQTTISRFEALNLSFKNMCKLKPLLENWLNDAESSP [K66N] and answer again. -0.019

Now consider SDLEELEKFAKTFKQRRIKLGFTQGDVGLAMGKLYGNDFSQTTISRFEALNLSFKNMCKLKPLLEKWLTDAESSP [N69T] and answer again. 0.033

Now consider SDLEELEKFAKTFKQRRIKLGFTQGDVGLAMGKLYGHDFSQTTISRFEALNLSFKNMCKLKPLLEKWLNDAESSP [N37H] and answer again. 0.04

Now consider SDLEELEKFAKTFKQRRIKLGFTQGDVGLAMGKLYGNDFSQTTISRFEALNLSFKNMCKLKPLKEKWLNDAESSP [L64K] and answer again. -1.01

Now consider SDLEELEKFAKTFKQRRIKLGFTQGDVGLAMGKLYGNDFSQTTIVRFEALNLSFKNMCKLKPLLEKWLNDAESSP [S45V] and answer again. -0.077

Now consider SDLEELEKFAKTFKQRRIKLGFTQGDVGLAMGKLYGNDFSQTTISWFEALNLSFKNMCKLKPLLEKWLNDAESSP [R46W] and answer again. -0.428

Now consider SDLEELEKFAKTFKQRRIKLGFTQGDVGLAMGKLYGNDFSQTTISRFEALNLSFKQMCKLKPLLEKWLNDAESSP [N56Q] and answer again. 0.046

Now consider SDLEELEKFAKTFKQRRIKLGFTQGDVGLAMGKLYGNDFSQTTISRFEALNLSFKNMCKLDPLLEKWLNDAESSP [K61D] and answer again. -0.898

Now consider SDLEELEKFAKTFKQRRIKLGFTQGDVGLAMGKLYGNDFSQTTISREEALNLSFKNMCKLKPLLEKWLNDAESSP [F47E] and answer again. -0.942
